Biological target: MRP2 (Rattus norvegicus, UniProt Q63120)
Sequence (Q63120 whole entry): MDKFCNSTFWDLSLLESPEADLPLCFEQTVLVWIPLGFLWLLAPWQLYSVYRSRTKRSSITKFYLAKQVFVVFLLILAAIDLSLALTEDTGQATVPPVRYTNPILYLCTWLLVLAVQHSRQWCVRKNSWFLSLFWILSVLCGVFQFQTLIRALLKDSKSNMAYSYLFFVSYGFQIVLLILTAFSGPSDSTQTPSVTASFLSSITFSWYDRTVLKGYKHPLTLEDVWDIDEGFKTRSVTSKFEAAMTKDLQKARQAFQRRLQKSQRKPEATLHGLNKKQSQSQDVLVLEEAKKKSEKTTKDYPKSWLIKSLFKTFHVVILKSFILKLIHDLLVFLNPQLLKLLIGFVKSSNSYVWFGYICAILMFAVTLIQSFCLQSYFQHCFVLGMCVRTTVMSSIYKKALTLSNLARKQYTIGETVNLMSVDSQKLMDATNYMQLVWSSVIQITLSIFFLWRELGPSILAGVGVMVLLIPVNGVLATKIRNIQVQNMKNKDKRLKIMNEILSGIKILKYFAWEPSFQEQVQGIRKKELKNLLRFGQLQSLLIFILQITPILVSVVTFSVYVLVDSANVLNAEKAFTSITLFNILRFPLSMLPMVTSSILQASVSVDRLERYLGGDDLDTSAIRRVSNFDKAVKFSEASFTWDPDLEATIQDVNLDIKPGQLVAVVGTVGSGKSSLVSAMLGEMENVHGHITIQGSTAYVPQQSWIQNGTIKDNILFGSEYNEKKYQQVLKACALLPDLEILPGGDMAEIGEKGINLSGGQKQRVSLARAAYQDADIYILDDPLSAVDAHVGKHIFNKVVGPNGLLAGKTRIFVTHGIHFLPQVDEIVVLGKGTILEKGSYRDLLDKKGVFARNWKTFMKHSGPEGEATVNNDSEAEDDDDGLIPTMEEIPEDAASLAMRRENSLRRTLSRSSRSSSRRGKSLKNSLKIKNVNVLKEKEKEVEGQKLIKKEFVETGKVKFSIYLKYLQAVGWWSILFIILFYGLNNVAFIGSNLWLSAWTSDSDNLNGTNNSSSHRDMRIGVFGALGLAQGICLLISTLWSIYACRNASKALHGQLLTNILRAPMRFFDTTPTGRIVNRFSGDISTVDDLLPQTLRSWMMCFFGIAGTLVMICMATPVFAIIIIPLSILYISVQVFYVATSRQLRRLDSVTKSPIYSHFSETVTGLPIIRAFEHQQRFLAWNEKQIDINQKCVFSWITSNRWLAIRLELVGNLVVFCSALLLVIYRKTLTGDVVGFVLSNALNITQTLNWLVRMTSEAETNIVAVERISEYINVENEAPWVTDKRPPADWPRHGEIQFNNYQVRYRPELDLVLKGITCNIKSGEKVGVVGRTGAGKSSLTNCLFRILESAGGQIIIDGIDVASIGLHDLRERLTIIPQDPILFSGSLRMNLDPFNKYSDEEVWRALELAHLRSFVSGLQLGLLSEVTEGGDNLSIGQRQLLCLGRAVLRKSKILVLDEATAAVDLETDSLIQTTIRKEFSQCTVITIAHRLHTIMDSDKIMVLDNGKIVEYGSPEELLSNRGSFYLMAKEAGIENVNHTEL
Assay: Ussing chamber bidirectional transport, model validation for MRP2 (pravastatin substrate, MK571 inhibitor)
Assay type: in vitro ADME
Set-up: intestinal segments including duodenum, jejunum, ileum, and colon from anesthetized rats were immediately removed by surgery; from tissue; host or cells: stripped rat intestine (jejunum and ileum in validation; jejunum for the emodin studies)
Settings: rat, pH 6.5, with MK571 186 μM, mucosal side, rat ileum, with MK571 186 μM on mucosal side; read-out: Papp S-M, with inhibitor
experimental-readout: Papp (×10⁻⁶ cm/s)

INSERT INTO measurements (compound, experimental_readout, unit_symbol, assay_value) VALUES
  ('CC[C@H](C)C(=O)O[C@H]1C[C@H](O)C=C2C=C[C@H](C)[C@H](CC[C@@H](O)C[C@@H](O)CC(=O)O)[C@H]21', 'Papp', '×10⁻⁶ cm/s', 224);
